Assay: in vitro
Details: human, hela cells, % viability
RESULT_TYPE: viability at 28.5 h, 10 µM

Illustrative cases are given below, each with its answer.
MOLECULE	viability at 28.5 h, 10 µM
CCC1CCCCN1C(=O)c1cc(C)nc(Cl)c1 (centres unmarked)	102%
O=C(NCCNc1ccc([N+](=O)[O-])cc1Cl)c1ccccc1Cl	112%
CC(C)c1ccc(CN2CCCN(c3cc(OCCc4c[nH]c5ccccc45)ncn3)CC2)cc1 [CBK083280T]	106%
Cc1cccnc1NC(=O)c1cc(O)nc2ccccc12	91.6%
CC(=O)N1CCn2nc(C(=O)N(CCO)Cc3ccccc3)cc2C1	89.3%
O=C(c1ccc(O)cc1)c1ccc(C(=O)O)c(C(=O)O)c1	105%
Cc1ccc(C(=O)O)cc1NC(=O)c1ncn(-c2ccccc2)n1	114%
Cn1c(C(=O)NC2CCOC(C)(C)C2)cc2ccccc21 (centres unmarked)	91.7%

For each of the molecules below, state viability at 28.5 h, 10 µM.
1. Cc1cc(OCC(O)CN2CCN(CCO)CC2)ccc1C(C)C (centres unmarked) [CBK278254C]
2. Cc1ccc(S(=O)(=O)N2C[C@H](O)C[C@H]2C(=O)O)cc1
3. FC(F)(F)c1nc2ccccc2nc1SCc1ccccc1
4. CN1CCN(Cc2oc(CO)cc(=O)c2O)CC1
5. CC(C)c1nsc(NS(=O)(=O)Cc2ccccc2)n1
6. COc1ccc(CNc2ccc(C3c4ccsc4CCN3C(C)=O)cc2)cc1 (centres unmarked)

["89%", "103%", "87%", "89.6%", "112%", "102%"]

Source listed as paper PMC12040169.
